Target: protein-protein interaction between Kras and SOS1 (biotin-tagged human Kras loaded with GDP, His-tagged human SOS1) (Homo sapiens (Human), UniProt P01116, G12D)
Test: Protein-protein interaction inhibition between Kras and SOS1 (KrasG12D-SOS PPI) using AlphaScreen;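 further: kras produced in E. coli, Ni-coupled donor beads and streptavidin acceptor beads, excitation 680 nm with emission detected at 520–620 nm via singlet oxygen transfer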
Format: biochemical
Settings: AlphaScreen; biotin-tagged human Kras loaded with GDP, His-tagged human SOS1; read-out: KRAS G12D-SOS PPI IC50
Bridge positions count the residues as written; N and C are the ends. Square brackets hold non-standard residues; d marks the D form. Peptide text beside a SMILES is read from it. * marks the point of attachment. hPhe(3-Cl-4-CF3) = N[C@@H](CCc1ccc(C(F)(F)F)c(Cl)c1)C(=O)O; NMeCha = CN[C@@H](CC1CCCCC1)C(=O)O; NMeChg = CN[C@H](C(=O)O)C1CCCCC1; NMeD = CN[C@@H](CC(=O)O)C(=O)O; NMeL = CN[C@@H](CC(C)C)C(=O)O; NMeA = CN[C@@H](C)C(=O)O; Piperidide = C1CCN(*)CC1; Ac5c = NC1(C(=O)O)CCCC1; Aze = O=C(O)[C@@H]1CCN1; Sar = CNCC(=O)O
Readout kind: pIC50
A value of pIC50 is the negative decimal logarithm of a concentration given in moles per litre.

Give me measured pIC50, please, for this compound: CC[C@H](C)[C@@H]1NC(=O)[C@H](CC(C)C)N(C)C(=O)C[C@@H](C(=O)N2CCCCC2)N(C)C(=O)[C@H](C2CCCCC2)N(C)C(=O)C2(CCCC2)NC(=O)[C@@H]2CCCN2C(=O)[C@H](CCc2ccc(C(F)(F)F)c(Cl)c2)NC(=O)CN(C)C(=O)[C@H](CC2CCCCC2)N(C)C(=O)[C@@H]2CCN2C(=O)[C@H](C)N(C)C1=O [Compound 249] ([NMeL]I[NMeA][Aze][NMeCha][Sar][hPhe(3-Cl-4-CF3)]P[Ac5c][NMeChg][NMeD]-Piperidide; lactam N-11)
8.80
